Across several studies, compounds have been characterized by their IC50 on PIK3CA (human) (UniProt P42336); a selection follows.

Solved cases (3 shown):
{"columns": ["COMPOUND STRUCTURE STRING", "PROPERTY MEASURED", "RESULT"],
 "data": [
  ["COc1ncc(-c2cc(OC3CCOCC3)c3ncnc(C)c3c2)cc1NS(=O)(=O)c1ccc(F)cc1Cl", "IC50", "0.00092 µM"],
  ["Cc1cccc2cc([C@H](C)Nc3nc(F)nc4[nH]cnc34)n(-c3ccccc3)c(=O)c12", "IC50", "< 10 µM"],
  ["N#Cc1ccc(NC(=O)N[C@H]2CC[C@H](Nc3cc(-n4c(C(F)F)nc5ccccc54)nc(N4CCOCC4)n3)CC2)cc1", "IC50", "> 3 µM"]
]}

Proceeding to the next compound to report its IC50.
# input compound: COC(=O)N[C@@H]1CCN([C@H]2CC[C@H](Oc3cc(-n4c(C(F)F)nc5ccccc54)nc(N4CCOCC4)n3)CC2)C1=O ; wanted: its IC50
> 10 µM
